result-type: boiling point
Express your answer as a number followed by its unit.

Task item: Can you look up the measured boiling point of `CCCCC(CC)CC` for me?
Reply: 143 °C

Task item: Can you look up the measured boiling point of CC(O)CCO (stereo not drawn) for me?
Reply: 208 °C

Task item: Can you look up the measured boiling point of `CC1CCC1` for me?
Reply: 36.3 °C

Task item: Can you look up the measured boiling point of `CCOC(=O)CC` for me?
Reply: 99.1 °C

Task item: Can you look up the measured boiling point of `COc1ccccc1Oc1ccccc1` for me?
Reply: 288 °C

Task item: Can you look up the measured boiling point of `C=CCc1cc(OC)c2c(c1OC)OCO2` for me?
Reply: 294 °C

Task item: Can you look up the measured boiling point of CCC(C)(O)CCC(C)C (stereo not drawn) for me?
Reply: 173 °C

Task item: Can you look up the measured boiling point of CC1(C)C2CCC1(C)C(Cl)C2 (stereo not drawn) for me?
Reply: 208 °C

Task item: Can you look up the measured boiling point of `C#CCCCCCCCCCCCCCC` for me?
Reply: 284 °C

Task item: Can you look up the measured boiling point of C=CC(C)(O)CCC=C(C)C (stereo not drawn) for me?
Reply: 198 °C

Task item: Can you look up the measured boiling point of `C[Si](C)(C)C` for me?
Reply: 26.6 °C

Task item: Can you look up the measured boiling point of `OC(C(F)(F)F)(C(F)(F)F)C(F)(F)F` for me?
Reply: 45 °C

Task item: Can you look up the measured boiling point of `Cc1ccc(C)c(O)c1C` for me?
Reply: 226 °C

Task item: Can you look up the measured boiling point of `CCCCCC(CC)CC` for me?
Reply: 166 °C

Task item: Can you look up the measured boiling point of `CC(C)CCCCO` for me?
Reply: 170 °C

Task item: Can you look up the measured boiling point of `CCCOC(=O)C(C)C` for me?
Reply: 135 °C

Task item: Can you look up the measured boiling point of `CC[C@H](C)CC=O` for me?
Reply: 121 °C

Task item: Can you look up the measured boiling point of `ClCCCCCCl` for me?
Reply: 179 °C

---

result-type: melting point (°C)
Give your result in °C as a bare value.

Task item: Can you look up the measured melting point of `Cc1ccc(C(=O)c2ccccc2)cc1` for me?
Reply: 59.5

Task item: Can you look up the measured melting point of `Cc1cc(C)nc(C)c1` for me?
Reply: -46

Task item: Can you look up the measured melting point of `Nc1ccc(C(=O)O)cc1O` for me?
Reply: 213

Task item: Can you look up the measured melting point of `CSCC[C@H](NC(C)=O)C(=O)O` for me?
Reply: 106

Task item: Can you look up the measured melting point of `COc1cc(C(=O)NCCCCCC(=O)O)cc(OC)c1OC` for me?
Reply: 122

Task item: Can you look up the measured melting point of `O=[N+]([O-])c1cc([N+](=O)[O-])c(Cl)c(C(F)(F)F)c1` for me?
Reply: 63

Task item: Can you look up the measured melting point of `CCCCOC=O` for me?
Reply: -91.5

Task item: Can you look up the measured melting point of `COC(=O)c1ccc(OC)cc1` for me?
Reply: 49

Task item: Can you look up the measured melting point of `CC(=O)c1ccc(O)c(O)c1` for me?
Reply: 116

Task item: Can you look up the measured melting point of `CCCCCCCCCCCCCCCCCC(=O)OC[C@@H](O)[C@H]1OC[C@H](O)[C@H]1O` for me?
Reply: 57

Task item: Can you look up the measured melting point of `COC(=O)C1(S(=O)(=O)c2ccc(C)cc2)CC1` for me?
Reply: 97.2

Task item: Can you look up the measured melting point of `ClC=C(Cl)Cl` for me?
Reply: -84.7

Task item: Can you look up the measured melting point of `N#CC(C#N)=C(C#N)C#N` for me?
Reply: 199

Task item: Can you look up the measured melting point of `O=C(CBr)c1ccc(Br)cc1` for me?
Reply: 111

Task item: Can you look up the measured melting point of `C1=CCc2ccccc2C1` for me?
Reply: 25

Task item: Can you look up the measured melting point of `O=C(O)[C@@H]1CCc2ccccc2C1` for me?
Reply: 97.7

Task item: Can you look up the measured melting point of CC1CO1 (stereo not given) for me?
Reply: -112

Task item: Can you look up the measured melting point of `COc1cc(OC)cc(OC)c1` for me?
Reply: 54.5

Task item: Can you look up the measured melting point of `CC[C@H]1CC[C@H]2[C@@H]3CC[C@@H]4CCCC[C@]4(C)[C@H]3CC[C@]12C` for me?
Reply: 84

Task item: Can you look up the measured melting point of `O=C(O)c1cc([N+](=O)[O-])cc([N+](=O)[O-])c1` for me?
Reply: 205

Task item: Can you look up the measured melting point of `CCC1(CC)C(=O)NC(=O)N(C)C1=O` for me?
Reply: 150

Task item: Can you look up the measured melting point of `CCCCC1C(=O)N(c2ccccc2)N(c2ccccc2)C1=O` for me?
Reply: 105

Task item: Can you look up the measured melting point of `C[N+](C)(C)CC(=O)O.[Cl-]` for me?
Reply: 242

Task item: Can you look up the measured melting point of `O[C@H](CCl)[C@H](O)CCl` for me?
Reply: 126

Task item: Can you look up the measured melting point of `N=C(N)NC(=N)N` for me?
Reply: 136

Task item: Can you look up the measured melting point of `O=C=Nc1ccccc1Cl` for me?
Reply: 30.5

Task item: Can you look up the measured melting point of `Nc1c(Br)cc(Br)c2c1C(=O)c1ccccc1C2=O` for me?
Reply: 221

Task item: Can you look up the measured melting point of `CCN(CC)C(=O)COC(=O)c1ccccc1` for me?
Reply: 72.5

Task item: Can you look up the measured melting point of `O=C(CCl)c1ccc(Cl)cc1` for me?
Reply: 102

Task item: Can you look up the measured melting point of `COc1c(F)c(F)c(F)c(F)c1F` for me?
Reply: -37

---

result-type: boiling point (°C)
Give your result in °C as a bare value.

Task item: Can you look up the measured boiling point of `CCCOC(=O)CCC` for me?
Reply: 143

Task item: Can you look up the measured boiling point of `CCCCCCOC(=O)c1ccccc1` for me?
Reply: 272

Task item: Can you look up the measured boiling point of `C=COCC` for me?
Reply: 35.5

Task item: Can you look up the measured boiling point of `COCCl` for me?
Reply: 59.5

Task item: Can you look up the measured boiling point of `Clc1ccc(-c2ccc(Cl)cc2)cc1` for me?
Reply: 317

Task item: Can you look up the measured boiling point of `CCOS(=O)(=O)OCC` for me?
Reply: 208

Task item: Can you look up the measured boiling point of `CCOC(N)=O` for me?
Reply: 185

Task item: Can you look up the measured boiling point of `CCn1cccc1` for me?
Reply: 130

Task item: Can you look up the measured boiling point of `Brc1ccc(-c2ccc(Br)cc2)cc1` for me?
Reply: 358

Task item: Can you look up the measured boiling point of `FCBr` for me?
Reply: 19

Task item: Can you look up the measured boiling point of `Oc1cccc(F)c1` for me?
Reply: 178

Task item: Can you look up the measured boiling point of `CCCCCN1CCCCC1` for me?
Reply: 198

Task item: Can you look up the measured boiling point of `C=CCCCCCCCCCCCC` for me?
Reply: 233

Task item: Can you look up the measured boiling point of `Fc1ccc(I)cc1` for me?
Reply: 183

Task item: Can you look up the measured boiling point of CC(C)CC(C)CC(O)CC(C)C (stereo not drawn) for me?
Reply: 225

Task item: Can you look up the measured boiling point of `C=CC(=C)Cl` for me?
Reply: 59.4

Task item: Can you look up the measured boiling point of `CN1CCc2cc3c(cc2C1)OCO3` for me?
Reply: 304

Task item: Can you look up the measured boiling point of `CC1=CCOCC1` for me?
Reply: 118

Task item: Can you look up the measured boiling point of `Cn1cccc1-c1cccnc1` for me?
Reply: 281

Task item: Can you look up the measured boiling point of CCCC(C)Br (stereo not drawn) for me?
Reply: 117

Task item: Can you look up the measured boiling point of `CCC(C)(CC)C(=O)O` for me?
Reply: 207

Task item: Can you look up the measured boiling point of `Cc1cccc2c1CC=C2` for me?
Reply: 209

Task item: Can you look up the measured boiling point of `O=Cc1c(F)c(F)cc(F)c1F` for me?
Reply: 178

Task item: Can you look up the measured boiling point of `COC(=O)C[C@@H](C)C(=O)OC` for me?
Reply: 196

Task item: Can you look up the measured boiling point of `FC(F)(F)C(F)(F)C(F)(F)C(F)(F)C(F)(F)C(F)(F)C(F)(F)F` for me?
Reply: 82.5

Task item: Can you look up the measured boiling point of `COc1cccc2ccccc12` for me?
Reply: 269

Task item: Can you look up the measured boiling point of `CCOC(=O)NC` for me?
Reply: 170

Task item: Can you look up the measured boiling point of `CCc1cccc([N+](=O)[O-])c1` for me?
Reply: 242

Task item: Can you look up the measured boiling point of `Cc1cccc(Nc2ccccc2)c1` for me?
Reply: 316

Task item: Can you look up the measured boiling point of `CC1=CC(=O)CCC1` for me?
Reply: 201

Task item: Can you look up the measured boiling point of `CC1=CC[C@@H]2[C@H]3[C@@H](C(C)C)CC[C@]2(C)[C@@H]13` for me?
Reply: 248

Task item: Can you look up the measured boiling point of `CCCCCCCCCCC#N` for me?
Reply: 253

Task item: Can you look up the measured boiling point of `O=C(O)c1cc(Cl)ccc1Cl` for me?
Reply: 301

Task item: Can you look up the measured boiling point of `Cc1ccc(C)c(Br)c1` for me?
Reply: 199

Task item: Can you look up the measured boiling point of `CCCOCCO` for me?
Reply: 150

Task item: Can you look up the measured boiling point of `c1ccc2cc(-c3ccc4ccccc4c3)ccc2c1` for me?
Reply: 452

Task item: Can you look up the measured boiling point of `O=[N+]([O-])OC(CO)CO` for me?
Reply: 158

Task item: Can you look up the measured boiling point of `C#CCC=C` for me?
Reply: 42.5

Task item: Can you look up the measured boiling point of `CCCC(O)(CC)CCC` for me?
Reply: 182

Task item: Can you look up the measured boiling point of `Brc1c(Br)c(Br)c(Oc2c(Br)c(Br)c(Br)c(Br)c2Br)c(Br)c1Br` for me?
Reply: 530

Task item: Can you look up the measured boiling point of `COCC#N` for me?
Reply: 119

Task item: Can you look up the measured boiling point of `CCCCSC` for me?
Reply: 124

Task item: Can you look up the measured boiling point of `CCC(C)(C)CC` for me?
Reply: 86

Task item: Can you look up the measured boiling point of `COC(=O)CS` for me?
Reply: 148

Task item: Can you look up the measured boiling point of `CCCNCCO` for me?
Reply: 183

Task item: Can you look up the measured boiling point of `C[C@H]1CCC(=O)N1` for me?
Reply: 248

Task item: Can you look up the measured boiling point of `CC(C)(C)c1ccc(O)c(O)c1` for me?
Reply: 285

Task item: Can you look up the measured boiling point of `CCC1(C)CC1` for me?
Reply: 56.8

Task item: Can you look up the measured boiling point of `CCOc1ccc(Cl)cc1` for me?
Reply: 213

Task item: Can you look up the measured boiling point of `Cc1coc(C)c1` for me?
Reply: 94

Task item: Can you look up the measured boiling point of `CCNc1ccc2ccccc2c1` for me?
Reply: 316

Task item: Can you look up the measured boiling point of `CC(C)(C)C(=O)CCl` for me?
Reply: 172

Task item: Can you look up the measured boiling point of C=C1C2CCC(C2)C1(C)C (stereo not drawn) for me?
Reply: 160

Task item: Can you look up the measured boiling point of `CC(C)CCOC(=O)C(C)C` for me?
Reply: 168

Task item: Can you look up the measured boiling point of `BrC(Br)Br` for me?
Reply: 149

Task item: Can you look up the measured boiling point of `CCC(=O)C(C)=O` for me?
Reply: 108

Task item: Can you look up the measured boiling point of `CC(C)OC(=O)C(=O)OC(C)C` for me?
Reply: 191

Task item: Can you look up the measured boiling point of `N#CCC#N` for me?
Reply: 218

Task item: Can you look up the measured boiling point of `FC(F)(F)C(F)(F)C(F)(F)C(F)(F)C(F)(F)C(F)(F)C(F)(F)C(F)(F)C(F)(F)C(F)(F)I` for me?
Reply: 195

Task item: Can you look up the measured boiling point of `C1CSCCS1` for me?
Reply: 200

Task item: Can you look up the measured boiling point of `CCCC(C)(C)Br` for me?
Reply: 142

Task item: Can you look up the measured boiling point of `ClCC(Cl)(Cl)CCl` for me?
Reply: 165

Task item: Can you look up the measured boiling point of `CCCCCCCCBr` for me?
Reply: 200

Task item: Can you look up the measured boiling point of `C=C=CCCCC` for me?
Reply: 106

Task item: Can you look up the measured boiling point of `O=[N+]([O-])c1ccc(Br)cc1` for me?
Reply: 256

Task item: Can you look up the measured boiling point of `N#Cc1ccccc1Cl` for me?
Reply: 232

Task item: Can you look up the measured boiling point of `Fc1ccc(-c2ccccc2)cc1` for me?
Reply: 253

Task item: Can you look up the measured boiling point of `Cc1ccc(N)c(Br)c1` for me?
Reply: 240

Task item: Can you look up the measured boiling point of `FC(C(F)(F)F)C(F)(F)F` for me?
Reply: -17.3

Task item: Can you look up the measured boiling point of `CCC(C)(C)C` for me?
Reply: 49.7

Task item: Can you look up the measured boiling point of `ClCCC(Cl)Cl` for me?
Reply: 146

Task item: Can you look up the measured boiling point of `CC(=O)OO` for me?
Reply: 110

Task item: Can you look up the measured boiling point of `CC=C(C)Cl` for me?
Reply: 64.5
